system: 186277-243-T-J2-PDC multi-cell spheroid viability; experiment: Anticancer human tumor 186277-243-T-J2-PDC patient-derived colon adenocarcinoma cell line growth inhibition [PI3K]; details: second compound 0.316 µM; first compound 1 µM; active compounds read low;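 further: spheroids exposed to compounds for seven days before viability reading; 100% = DMSO vehicle control viability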
Please use 1 for viability, T/C under 90% and 0 for everything else, ties included.

**Query** Does the reported viability, T/C of the following compound sit strictly below 90%? CC(Cn1ccc(-c2ccc(C#N)c(Cl)c2)n1)NC(=O)c1cc(C(C)O)[nH]n1 (centres undefined) + CC(Nc1ncnc2nc[nH]c12)c1cc2cccc(Cl)c2c(=O)n1-c1ccccc1
**Result** 0

**Query** Does C=CC(=O)N1CCN(c2nc(=O)n(-c3c(C)ccnc3C(C)C)c3nc(-c4c(O)cccc4F)c(F)cc23)C(C)C1 (centres undefined) + COc1c(OCCCN2CCOCC2)ccc2c3n(c(=NC(=O)c4cnc(N)nc4)nc12)CCN3 have viability, T/C strictly under 90%?
**Result** 1

**Query** Determine whether this compound shows viability, T/C lower than 90% (ties excluded): Cn1nccc1Nc1nccc(-c2ccn(C(CO)c3ccc(Cl)c(F)c3)c(=O)c2)n1 (centres undefined) + CC(Nc1ccc2c(c1)OCCn1cc(N3C(=O)OCC3C(F)F)nc1-2)C(N)=O
**Result** 1

**Query** Hi there! Is viability, T/C for CC1(C)CCC(CN2CCN(c3ccc(C(=O)NS(=O)(=O)c4ccc(NCC5CCOCC5)c([N+](=O)[O-])c4)c(Oc4cnc5[nH]ccc5c4)c3)CC2)=C(c2ccc(Cl)cc2)C1 + Cc1nc(NC(=O)N2CCCC2C(N)=O)sc1-c1ccnc(C(C)(C)C(F)(F)F)c1 below 90%, do you know?
**Result** 0

**Query** Input CC1(C)CCC(CN2CCN(c3ccc(C(=O)NS(=O)(=O)c4ccc(NCC5CCOCC5)c([N+](=O)[O-])c4)c(Oc4cnc5[nH]ccc5c4)c3)CC2)=C(c2ccc(Cl)cc2)C1 + COc1c(OCCCN2CCOCC2)ccc2c3n(c(=NC(=O)c4cnc(N)nc4)nc12)CCN3 ; condition: viability, T/C strictly below 90%. Does it hold?
**Result** 1

**Query** Item CCN1CCN(Cc2ccc(Nc3ncc(F)c(-c4cc(F)c5nc(C)n(C(C)C)c5c4)n3)nc2)CC1 + COc1c(OCCCN2CCOCC2)ccc2c3n(c(=NC(=O)c4cnc(N)nc4)nc12)CCN3 : viability, T/C beneath 90%, strictly?
**Result** 1

**Query** I wonder whether CNC(=O)c1ccc(N2C(=S)N(c3ccc(C#N)c(C(F)(F)F)c3)C(=O)C2(C)C)cc1F + Cc1nc(NC(=O)N2CCCC2C(N)=O)sc1-c1ccnc(C(C)(C)C(F)(F)F)c1 has viability, T/C below 90%. Can you tell?
**Result** 0
